Target: JAK3 (Homo sapiens, UniProt P52333)
Sequence (P52333 1-1124): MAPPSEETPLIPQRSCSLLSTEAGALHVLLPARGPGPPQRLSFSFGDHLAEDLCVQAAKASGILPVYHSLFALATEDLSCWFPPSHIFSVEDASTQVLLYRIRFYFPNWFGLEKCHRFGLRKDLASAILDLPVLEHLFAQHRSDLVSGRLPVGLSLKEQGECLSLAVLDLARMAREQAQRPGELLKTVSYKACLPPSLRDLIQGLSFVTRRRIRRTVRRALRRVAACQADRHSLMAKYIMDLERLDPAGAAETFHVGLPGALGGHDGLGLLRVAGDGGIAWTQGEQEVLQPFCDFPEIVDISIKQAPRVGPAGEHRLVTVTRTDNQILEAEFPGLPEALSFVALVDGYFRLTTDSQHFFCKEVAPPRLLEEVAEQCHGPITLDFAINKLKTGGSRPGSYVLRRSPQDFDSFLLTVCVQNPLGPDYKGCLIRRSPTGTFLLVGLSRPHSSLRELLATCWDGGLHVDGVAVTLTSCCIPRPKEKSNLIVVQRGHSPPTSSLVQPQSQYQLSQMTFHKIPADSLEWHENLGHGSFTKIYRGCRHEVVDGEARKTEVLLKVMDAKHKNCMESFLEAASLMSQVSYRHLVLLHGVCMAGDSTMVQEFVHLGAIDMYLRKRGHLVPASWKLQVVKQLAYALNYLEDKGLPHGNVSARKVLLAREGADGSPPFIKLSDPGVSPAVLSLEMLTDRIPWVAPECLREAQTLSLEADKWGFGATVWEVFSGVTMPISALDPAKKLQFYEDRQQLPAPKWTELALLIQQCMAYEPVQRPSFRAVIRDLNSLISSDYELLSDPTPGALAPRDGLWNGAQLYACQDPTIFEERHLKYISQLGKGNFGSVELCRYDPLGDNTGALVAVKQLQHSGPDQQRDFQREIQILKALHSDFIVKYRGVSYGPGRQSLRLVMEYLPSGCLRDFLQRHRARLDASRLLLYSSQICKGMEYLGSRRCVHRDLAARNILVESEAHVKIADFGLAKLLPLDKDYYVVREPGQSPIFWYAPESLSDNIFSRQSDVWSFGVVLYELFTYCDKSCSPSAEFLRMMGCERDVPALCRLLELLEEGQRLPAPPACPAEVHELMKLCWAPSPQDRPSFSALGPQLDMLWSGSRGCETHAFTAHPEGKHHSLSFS
pKi: −log10 of the molar value.
measured_parameter: pKi

INPUT: Please look up its pKi: Nc1nn2cc(C(=O)NCCc3ccccc3)cnc2c1-c1ccccn1 [Compound V-198]
OUTPUT: < 5.30

INPUT: Field entry: CN(CCc1ccccn1)C(=O)c1ccc(-c2cnc3c(-c4ccccn4)c(N)nn3c2)nc1 [Compound V-60]
OUTPUT: 5.30 to 6.30

INPUT: Entry Cc1cnc2c(-c3cc(N[C@H]4CCC[C@@H]4OCc4ccccc4)ncn3)c(N)nn2c1 [Compound V-334] please
OUTPUT: 5.30 to 6.30

INPUT: Same read-out for Nc1nn2cc(-c3cccc(C(=O)N4CCC(N5CCCC5)CC4)n3)cnc2c1-c1ccccn1 [Compound V-121] ?
OUTPUT: < 5.30

INPUT: Same thing, different compound: Cc1cnc2c(-c3cc(NC(C)CO)ncn3)c(N)nn2c1 (centres unmarked) [Compound V-283]
OUTPUT: 5.30 to 6.30

INPUT: // next record CCOC(=O)c1c(N)nn2cc(-c3ccc(Cl)cc3)cnc12 [Compound V-24]
OUTPUT: < 5.30

INPUT: What do you have for Nc1nn2cc(-c3ccc(C(=O)N4CCC[C@H]4CN4CCCC4)cn3)cnc2c1-c1ccccn1 [Compound V-177] ?
OUTPUT: 5.30 to 6.30

INPUT: What about this compound? CCN(CC)CCN(C)c1ccc(-c2cnc3c(-c4ccccn4)c(N)nn3c2)cn1 [Compound V-173]
OUTPUT: 5.30 to 6.30

Origin of values: patent US7528138B2
